# SYSTEM_TESTED: T1, human TREM2 (human, UniProt Q9NZC2 19-174, limits assumed)
# T1 construct: also called triggering receptor expressed on myeloid cells 2
# T1 sequence: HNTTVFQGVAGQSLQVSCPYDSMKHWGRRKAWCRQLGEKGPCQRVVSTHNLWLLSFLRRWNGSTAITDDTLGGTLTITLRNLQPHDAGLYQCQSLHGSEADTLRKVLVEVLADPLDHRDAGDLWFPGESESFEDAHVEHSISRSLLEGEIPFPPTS
# EXPERIMENTAL_DETAILS: 2nd screen 100 nM
MEASURE: Binding Signal (fold over 6E7 Parental antibody) (fold)
Dear colleague, please return just the value in fold, with no unit written.

BINDER	RESULT_VALUE
V9 (antibody, V domains shown) VH: EVQLVQSGAEVKKPGESLKISCKGSGYSFTSYWIAWVRQMPGKGLEWMGIIYPGDSDTRYSPSFQGQVTISADKSISTAYLQWSSLKASDTAMYFCARQRGFYYDSSDYFDYWGQGTLVTVSS VL: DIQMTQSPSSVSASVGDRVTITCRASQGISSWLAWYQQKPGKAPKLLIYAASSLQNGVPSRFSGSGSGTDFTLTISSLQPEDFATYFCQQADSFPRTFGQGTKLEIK	0.54

What Binding Signal (fold over 6E7 Parental antibody) value was documented for this binder, V81 (antibody, V domains shown) VH: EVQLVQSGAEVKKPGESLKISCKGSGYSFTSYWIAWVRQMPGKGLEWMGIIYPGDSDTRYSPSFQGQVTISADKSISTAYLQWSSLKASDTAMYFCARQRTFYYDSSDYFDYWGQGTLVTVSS VL: DIQMTQSPSSVSASVGDRVTITCRASQGISSLLAWYQQKPGKAPKLLIYAASSLQNGVPSRFSGSGSGTDFTLTISSLQPEDFATYFCQQADSFPRTFGQGTKLEIK ?
0.23

Data origin: patent US20250282866A1
